test: qHTS assay to identify small molecule agonists of the androgen receptor (AR) signaling pathway in the presence of an antagonist - cell viability counter screen (AID 1259379); details: MDA-kb2 viability, CellTiter-Fluor, 16 h; series mostly up to 92.4 µM;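 note: MDA-kb2 human breast cancer cells carrying an MMTV luciferase reporter; nearly all actives have a fitted effect of over 25% in size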
Results filed as inconclusive are left out. The source made the active and inactive calls. Calls come from the whole dose curve; as a rule, active = well fitted cell-killing curve with a large enough effect in the repeat runs; inconclusive = weak or mixed curves, or effect the other way; inactive = flat fitted curve, though single readings scatter.
endpoint name: outcome

compound="CC(=O)Nc1ccn(C2COC(COC(=O)c3ccccc3)O2)c(=O)n1 (configuration not stated)" measured=inactive
compound=Cc1cc(C)c(C)c(O)c1 measured=inactive
compound="CC(C(=O)O)c1ccc2c(c1)Cc1cccnc1O2 (configuration not stated)" measured=inactive
compound=C=Cc1ccc(C=C)cc1 measured=inactive
compound="O=C1OC(=O)C2CC=CCC12 (configuration not stated)" measured=inactive
compound=CCn1nc(Cc2ccccc2)cc1C1CCN(C[C@H]2C[C@H](N(C)[C@@H](C(=O)O)C(C)C)C[C@@H]2c2cccc(F)c2)CC1 measured=inactive
compound=O=C(O)c1ccccc1-n1cc(C(=O)O)c(=O)c2cc(Nc3c(F)cc(F)cc3Cl)c(Cl)cc21 measured=inactive
compound=CC(C)Oc1ccccc1O measured=inactive
compound=CCOC(=O)CC(O)(CC(=O)OCC)C(=O)OCC measured=inactive
compound=Nc1ccccc1Nc1ccccc1 measured=inactive
compound=Nc1nc(Cl)nc2c1ncn2[C@H]1C[C@H](O)[C@@H](CO)O1 measured=inactive
compound=CC/C=C\CCO measured=inactive
